Lab note: HepSE_Combined Scores readings collected with Hepatotoxicity for the following molecules.
Measured Attribute: HepSE_Combined Scores

molecule=C[C@@H]1C[C@H]2[C@@H]3CCC4=CC(=O)C=C[C@]4(C)[C@@]3(F)[C@@H](O)C[C@]2(C)[C@@]1(O)C(=O)CO measured_attribute="HepSE_Combined Scores" readout_value=1
molecule=CCN(CC)CCOC(=O)C1(C2CCCCC2)CCCCC1 measured_attribute="HepSE_Combined Scores" readout_value=0
molecule=CC#C[C@]1(O)CC[C@H]2[C@@H]3CCC4=CC(=O)CCC4=C3[C@@H](c3ccc(N(C)C)cc3)C[C@@]21C measured_attribute="HepSE_Combined Scores" readout_value=0
molecule=CCOC(=O)[C@H](CCc1ccccc1)N[C@@H](C)C(=O)N1[C@H](C(=O)O)C[C@H]2CCCC[C@@H]21 measured_attribute="HepSE_Combined Scores" readout_value=2
molecule=CCc1nc(N)nc(N)c1-c1ccc(Cl)cc1 measured_attribute="HepSE_Combined Scores" readout_value=0
molecule="C[N+]1(C)CCCC(OC(=O)C(O)(c2ccccc2)c2ccccc2)C1.[Br-] (stereo not drawn) [MEPENZOLATE BROMIDE]" measured_attribute="HepSE_Combined Scores" readout_value=0
molecule=Nc1nc(F)nc2c1ncn2[C@@H]1O[C@H](CO)[C@@H](O)[C@@H]1O measured_attribute="HepSE_Combined Scores" readout_value=2
molecule="CC1(C)O[C@@H]2C[C@H]3[C@@H]4CCC5=CC(=O)C=C[C@]5(C)[C@H]4[C@@H](O)C[C@]3(C)[C@]2(C(=O)CO)O1 [DESONIDE]" measured_attribute="HepSE_Combined Scores" readout_value=0

----------
The following compounds have recorded HepSE_elevated liver function tests on Hepatotoxicity.
Measured Attribute: HepSE_elevated liver function tests

compound="OCCOCCN1CCN(C(c2ccccc2)c2ccc(Cl)cc2)CC1 (centres undefined) [HYDROXYZINE]" readout_value=0
compound="NS(=O)(=O)c1cc2c(cc1C(F)(F)F)NCNS2(=O)=O [HYDROFLUMETHIAZIDE]" readout_value=0
compound=Cc1c(O)cccc1C(=O)N[C@@H](CSc1ccccc1)[C@H](O)CN1C[C@H]2CCCC[C@H]2C[C@H]1C(=O)NC(C)(C)C readout_value=0
compound="[Cl-].[K+] [POTASSIUM CHLORIDE]" readout_value=0
compound=O=C1CN=C(c2ccccn2)c2cc(Br)ccc2N1 readout_value=0
compound=CC[C@@H](CO)NCCN[C@@H](CC)CO readout_value=0
compound="NS(=O)(=O)c1cc2c(cc1C(F)(F)F)NC(Cc1ccccc1)NS2(=O)=O (centres undefined) [BENDROFLUMETHIAZIDE]" readout_value=0
compound=N[C@@H](Cc1cc(I)c(Oc2ccc(O)c(I)c2)c(I)c1)C(=O)O readout_value=0
compound="Cc1nc2n(c(=O)c1CCN1CCC(c3noc4cc(F)ccc34)CC1)CCCC2O (centres undefined)" readout_value=0

----------
# collection of HepSE_hepatomegaly values tested on Hepatotoxicity
*1 amine or outer side, *2 acyl side, *3 side chain or, on linkers, in order; H or OH if unused. Where a SMILES comes first, the peptide text is derived from it. Bridges are numbered along the chain shown (N, C = ends). [ ]: non-standard residue; d: D form. The star is where a group is joined. ξ: configuration not given here. X2 = N=C1NCCC([C@H](N[*:1])C(=O)[*:2])N1; ΔAla(Z-3-ureido) = NC(=O)N/C=C(\N)C(=O)O; ξβ3hOrn = NCCCC(N)CC(=O)*; Dap = NC[C@H](N)C(=O)O
Measured Attribute: HepSE_hepatomegaly

compound="CC(=O)[C@@]1(O)CC[C@H]2[C@@H]3C=C(Cl)C4=CC(=O)[C@@H]5C[C@@H]5[C@]4(C)[C@H]3CC[C@@]21C [CYPROTERONE]" readout_value=1
compound="N=C(N)NC(=O)Cc1c(Cl)cccc1Cl [GUANFACINE]" readout_value=0
compound="C[C@@H]1NC(=O)[C@@H](N)CNC(=O)[C@H](C2CCNC(=N)N2)NC(=O)/C(=C/NC(N)=O)NC(=O)[C@H](CNC(=O)CC(N)CCCN)NC1=O.N=C1NCCC([C@@H]2NC(=O)/C(=C/NC(N)=O)NC(=O)[C@H](CNC(=O)CC(N)CCCN)NC(=O)[C@H](CO)NC(=O)[C@@H](N)CNC2=O)N1 (stereo partly drawn) [CAPREOMYCIN] (H-[Dap]S[Dap](ξβ3hOrn)[ΔAla(Z-3-ureido)][X2]; lactam 1-C)" readout_value=0
compound=C=C1[C@H](CO)[C@@H](O)C[C@@H]1n1cnc2c(=O)[nH]c(N)nc21.O readout_value=1
compound="COc1cc(C(=O)NS(=O)(=O)c2ccccc2C)ccc1Cc1cn(C)c2ccc(NC(=O)OC3CCCC3)cc12 [ZAFIRLUKAST]" readout_value=0

Reference source: ChEMBL document CHEMBL1909294
